The reader will find reported cell viability values listed item by item below.
# Tested on: P12-Ichikawa
# assay_notes: cell viability relative to DMSO control; higher = less cytotoxic
# condition: RPMI 5 mM glucose + 10% dialyzed FBS; 48 h; 5.12 µM
Give the number; % is assumed, so skip it.

Illustrative cases are given below, each with its answer.
compound: CC1=C(/C=C/C(C)=C/C=C/C(C)=C\C(=O)O)C(C)(C)CCC1
tested_system: P12-Ichikawa
result_units: %
cell viability: 83.7

compound: C[C@]12Cc3cn[nH]c3C[C@@H]1CC[C@@H]1[C@@H]2CC[C@@]2(C)[C@H]1CC[C@]2(C)O
tested_system: P12-Ichikawa
result_units: %
cell viability: 96.9

compound: O=C1\C=C/C=C2/[C@H]3CNC[C@H](C3)CN12
tested_system: P12-Ichikawa
result_units: %
cell viability: 118

compound: Cc1ccccc1C(OCCN(C)C)c1ccccc1 (stereo not drawn)
tested_system: P12-Ichikawa
result_units: %
cell viability: 124

compound: O=[N+]([O-])c1ncc[nH]1
tested_system: P12-Ichikawa
result_units: %
cell viability: 98

Lookup: Could you tell me which cell viability is on file for Cc1nn(C)c(COc2ccc(N3CCN([S+](=O)([O-])N(C)C)CC3)cc2)c1-c1cccc2c(CCCOc3cccc4ccccc34)c(C(=O)O)n(CCN3CCOCC3)c12 ?
Found: 96.1

Lookup: Now this one: CC(C)N(C[C@H]1O[C@@H](n2cnc3c(N)ncnc32)[C@H](O)[C@@H]1O)[C@H]1C[C@@H](CCc2nc3cc(C(C)(C)C)ccc3[nH]2)C1
Found: 31.4

Lookup: Now this one: O=C(CCc1ccc(O)cc1)c1c(O)cc(O)cc1O
Found: 102

----------
# Test system: P12-Ichikawa
# assay_notes: cell viability relative to DMSO control; higher = less cytotoxic
# condition: RPMI 5 mM glucose + 10% FBS; 48 h; 0.569 µM
The reader will find reported cell viability values listed item by item below.
Give the number; % is assumed, so skip it.

compound: CC[N+](CC)(CC)CCOc1cccc(OCC[N+](CC)(CC)CC)c1OCC[N+](CC)(CC)CC
result_units: %
experimental_result: 107

compound: O=C(Nc1c[nH]nc1-c1nc2cc(CN3CCOCC3)ccc2[nH]1)NC1CC1
result_units: %
experimental_result: 38

compound: O=C(O)CCCCC(CCSCc1ccccc1)SCc1ccccc1 (stereo unspecified)
result_units: %
experimental_result: 130

Lookup: Could you tell me which cell viability is on file for N#Cc1ccc(Oc2ccc3c(c2)COB3O)cc1 ?
Found: 139

Lookup: Now this one: C[C@@H]1CN(Cc2ccc(F)cc2)[C@@H](C)CN1C(=O)c1cc2c(C(=O)C(=O)N(C)C)cn(C)c2cc1Cl
Found: 132

Lookup: Now this one: CC(C)(S)[C@@H](N)C(=O)O
Found: 118

Lookup: Now this one: NC(=O)Nc1sc(-c2ccc(F)cc2)cc1C(N)=O
Found: 106

Lookup: Now this one: CCOc1cc2ncc(C#N)c(Nc3ccc(OCc4ccccn4)c(Cl)c3)c2cc1NC(=O)/C=C/CN(C)C
Found: 121

Lookup: Now this one: COc1cc(Nc2c(C#N)cnc3cc(OCCCN4CCN(C)CC4)c(OC)cc23)c(Cl)cc1Cl
Found: 122

Lookup: Now this one: O=C([O-])C[C@H](O)C[C@H](O)/C=C/c1c(C2CC2)nc2ccccc2c1-c1ccc(F)cc1
Found: 105

Lookup: Now this one: Cc1c(-c2cccc3c(CCCOc4cccc5ccccc45)c(C(=O)O)n(Cc4cccnc4)c23)c(COc2ccc(N3CCN([S+](=O)([O-])N(C)C)CC3)cc2)nn1C
Found: 84.2

Lookup: Now this one: O=C(CCCCCCC(=O)Nc1cccnc1)NO
Found: 99.6
